Ref: patent US12344610B2

systemUnderTest: APOL1 G2 (Homo sapiens, UniProt O14791, DEL388-389)
Construct: expressed in transfected cells; host or cells: HEK293 T-REx clonal line stably expressing GCaMP6f (HEK T-REx/GCaMP6f/APOL1 G2 K6.3), doxycycline induced
Sequence (O14791 with tags, fused parts or gaps DEL388-389): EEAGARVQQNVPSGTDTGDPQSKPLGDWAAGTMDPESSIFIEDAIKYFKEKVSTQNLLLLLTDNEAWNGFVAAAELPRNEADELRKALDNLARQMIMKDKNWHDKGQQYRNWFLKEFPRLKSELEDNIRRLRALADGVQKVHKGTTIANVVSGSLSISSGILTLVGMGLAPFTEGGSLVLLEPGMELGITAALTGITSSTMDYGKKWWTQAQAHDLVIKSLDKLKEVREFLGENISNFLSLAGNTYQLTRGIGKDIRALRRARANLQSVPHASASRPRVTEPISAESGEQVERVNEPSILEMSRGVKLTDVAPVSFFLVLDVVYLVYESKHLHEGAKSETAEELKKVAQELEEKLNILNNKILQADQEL
protocolDescription: APOL1-mediated calcium transport (calcium influx) assay, HEK T-REx/GCaMP6f/APOL1 G2 K6.3 cells, FLIPR TETRA
Format: cell-based
experimentalConditions: prevention of calcium influx; geometric mean of at least 2 assay runs; † = average of a technical replicate from a single assay run
The following compounds are shown together with reported AC50 values.
readoutType: AC50 (nM)

compound=O=C1Nc2ccc(Cl)cc2C12CCN(CCOc1ccc(S(=O)(=O)C3(CO)CC3)nc1)CC2 readouttype=AC50 endpointresult=820
compound=CS(=O)(=O)C1(c2c(F)cc(OCCN3CCC4(CC3)C(=O)Nc3ccc(Cl)cc34)cc2F)COC1 readouttype=AC50 endpointresult=800
compound=CN1C(=O)Cc2cc(OCCN3CCC4(CC3)C(=O)Nc3ccc(Cl)cc34)ccc21 readouttype=AC50 endpointresult=639
compound="CC(c1ncc(OCCN2CCC3(CC2)C(=O)Nc2ccc(Cl)cc23)cn1)S(C)(=O)=O (stereo not shown)" readouttype=AC50 endpointresult=703
compound="CC(COc1ccc(C2(S(C)(=O)=O)COC2)cc1)N1CCC2(CC1)C(=O)Nc1ccc(C#N)cc12 (single isomer, unassigned) [Compound 264]" readouttype=AC50 endpointresult=1950
compound=CS(=O)(=O)c1ccc(OCCN2CCC3(CC2)C(=O)Nc2c(Cl)cc(Cl)cc23)cc1 readouttype=AC50 endpointresult=601
compound=O=C(c1ccc(OCCN2CCC3(CC2)C(=O)Nc2ccc(Cl)cc23)cc1C(F)(F)F)N1CCS(=O)(=O)CC1 readouttype=AC50 endpointresult=921

----------
As shown below, each of these molecules has a reported EC50 value.
Tested on: Trypanosoma brucei Lister 427 VSG221 with APOL1 G1 recombinant protein
protocolDescription: APOL1 G1 trypanosome cell rescue assay (Example B5)
Format: cell-based
experimentalConditions: Trypanosoma brucei, 20 h, read-out: APOL1 G1 Trypanosome Rescue EC50, Trypanosoma brucei Lister 427 VSG221 with APOL1 G1 recombinant protein, 20 hours, CellTiter-Glo; geometric mean of at least 2 assay runs; † = single assay run
readoutType: EC50

molecule="O=C1CCc2cc(OCCN3CCC4(CC3)C(=O)Nc3ccc(Cl)cc34)cnc2N1[C@H]1C[C@@](O)(C2CC2)C1 (single isomer, unassigned) [Compound 297]" endpointresult="0.0854 µM"
molecule="CN(c1c(F)cc(OCCN2CCC3(CC2)C(=O)Nc2ccc(C#N)cc23)cc1F)S(C)(=O)=O [Compound 128]" endpointresult="0.383 µM"
molecule="CC1(O)CC2(CN(c3ncc(OCCN4CCC5(CC4)C(=O)Nc4ccc(Cl)cc45)cn3)C2)C1 [Compound 459]" endpointresult="0.133 µM"
molecule="C[C@]1(O)C[C@@H](n2ncc3cc(OCCN4CCC5(CC4)C(=O)Nc4ccc(Cl)cc45)cnc32)C1 (single isomer, unassigned) [Compound 357]" endpointresult="0.0916 µM"
molecule="CN1Cc2cc(OCCN3CCC4(CC3)C(=O)Nc3ccc(Cl)cc34)ccc2C1=O [Compound 146]" endpointresult="0.427 µM"
molecule="CP(C)(=O)C1(c2ccc(OCCN3CCC4(CC3)C(=O)Nc3ccc(Cl)cc34)cc2)CC1 [Compound 343]" endpointresult="0.203 µM"
molecule="Cc1cc(OCCN2CCC3(CC2)C(=O)Nc2ccc(Cl)cc23)cc(C)c1S(C)(=O)=O [Compound 129]" endpointresult="0.0695 µM"
molecule="O=C1CCc2cc(OCCN3CCC4(CC3)C(=O)Nc3ccc(Cl)cc34)ccc2N1CC(F)F [Compound 106]" endpointresult="0.0918 µM"
molecule="O=C1Nc2ccc(Cl)cc2C12CCN(CCOc1cnc(C3(CO)CC3)nc1)CC2 [Compound 333]" endpointresult="0.205 µM"
molecule="CNC(=O)N1CCc2cc(OCCN3CCC4(CC3)C(=O)Nc3ccc(Cl)cc34)ccc2C1 [Compound 245]" endpointresult="0.379 µM"
molecule="C[C@]1(O)C[C@@H](n2cnc3cc(OCCN4CCC5(CC4)C(=O)Nc4ccc(Cl)cc45)cc(C(F)(F)F)c32)C1 [Compound 352]" endpointresult="0.0188 µM"
molecule="CS(=O)(=O)C1(c2ncc(OCCN3CCC4(CC3)C(=O)Nc3ccc(C(F)F)cc34)cn2)CC1 [Compound 5]" endpointresult="0.171 µM"
molecule="Cc1cc(OCCN2CCC3(CC2)C(=O)Nc2ccc(C#N)cc23)cnc1S(C)(=O)=O [Compound 140]" endpointresult="0.653 µM"
molecule="CC(c1ncc(OCCN2CCC3(CC2)C(=O)Nc2ccc(Cl)cc23)cn1)S(C)(=O)=O (single isomer, unassigned) [Compound 2]" endpointresult="0.191 µM"
molecule="O=C1Nc2ccc(Cl)cc2C12CCN(CCOc1ccc(S(=O)(=O)C3(C(=O)N4CCC4)CC3)cc1)CC2 [Compound 228]" endpointresult="0.363 µM"
molecule="C[C@]1(O)C[C@@H](n2c(=O)ccc3cc(OCCN4CCC5(CC4)C(=O)Nc4ccc(C#N)cc45)cnc32)C1 [Compound 406]" endpointresult="0.128 µM"
molecule="C[C@]1(O)C[C@@H](N2C(=O)CCc3cc(OCCN4CCC5(CC4)C(=O)Nc4ccc(Cl)cc45)cnc32)C1 [Compound 275]" endpointresult="0.0736 µM"
molecule="CN(C)C(=O)C1(S(=O)(=O)c2ccc(OCCN3CCC4(CC3)C(=O)Nc3ccc(Cl)cc34)cc2)CC1 [Compound 227]" endpointresult="0.248 µM"
molecule="Cc1cc(OCCN2CCC3(CC2)C(=O)Nc2ccc(Cl)cc23)ccc1C(N)=O [Compound 49]" endpointresult="0.304 µM"
molecule="CN1C(=O)C2(CCN(CCOc3ccc(C(=O)N4CCS(=O)(=O)CC4)c(C(F)(F)F)c3)CC2)c2cc(C#N)ccc21 [Compound 261]" endpointresult="0.1 µM"
molecule="O=C1CCc2cc(OCCN3CCC4(CC3)C(=O)Nc3ccc(Cl)cc34)ccc2N1C1COC1 [Compound 99]" endpointresult="0.346 µM"
molecule="C[C@@H](COc1ccc(S(C)(=O)=O)c(C(F)F)c1)N1CCC2(CC1)C(=O)Nc1ccc(Cl)cc12 (single isomer, unassigned) [Compound 210]" endpointresult="0.0711 µM"
molecule="CC1(O)CC(CN2C(=O)CCc3cc(OCCN4CCC5(CC4)C(=O)Nc4ccc(C(F)F)cc45)cnc32)C1 (single isomer, unassigned) [Compound 311]" endpointresult="0.0503 µM"
molecule="CN=S(C)(=O)c1ccc(OCCN2CCC3(CC2)C(=O)Nc2ccc(Cl)cc23)cc1 (single isomer, unassigned) [Compound 148]" endpointresult="0.201 µM"
molecule="CC(c1ccc(OCCN2CCC3(CC2)C(=O)Nc2ccc(C#N)cc23)cc1)S(C)(=O)=O (single isomer, unassigned) [Compound 134]" endpointresult="0.991 µM"
molecule="C[C@]1(O)C[C@@H](N2C(=O)CCc3cc(OCCN4CCC5(CC4)C(=O)Nc4c(I)cc(Cl)cc45)cnc32)C1 [Compound 329]" endpointresult="0.24 µM"
molecule="O=C1CCC2c3ccc(OCCN4CCC5(CC4)C(=O)Nc4ccc(Cl)cc45)cc3CCN12 (single isomer, unassigned) [Compound 122]" endpointresult="0.337 µM"
molecule="O=C1Nc2ccc(Cl)cc2C12CCN(CCOc1cnc3c(N4CC(O)C4)nccc3c1)CC2 [Compound 314]" endpointresult="0.0349 µM"
